test: ATG_CMV_CIS: Attagene CIS-FACTORIAL HepG2 Assay for human CMV (Internal Marker) (AID 2282928); details: HepG2 CMV promoter reporter, transcription factor profiling; actives raise or lower the signal;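 further: endpoint acts as a background internal control marker rather than a target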
Active and inactive are the calls of the source. How the source made its calls: active means hit-call score of the fitted dose curve at least 0.9, where 1 is the maximum; inactive means score below 0.9.
Give your call using only these classes: T (active), F (inactive)

Example results:
{"columns": ["compound", "label-value"],
 "data": [
  ["O=C(O)Cc1c[nH]c2ccccc12", "F"],
  ["CC1(C)S[C@@H]2[C@H](NC(=O)[C@H](N)c3ccccc3)C(=O)N2[C@H]1C(=O)O", "F"],
  ["CC[N+](CC)(CC(=O)Nc1c(C)cccc1C)Cc1ccccc1 (tested in a mixture with another compound)", "F"],
  ["CCCCn1cc[n+](C)c1", "F"],
  ["CN(C)N=Nc1ccccc1", "F"],
  ["COC(=O)/C=C\\C(=O)OC", "F"],
  ["CCCCCCCC#N", "F"],
  ["CCCCCCOC(=O)CCCCCCCC(=O)OCCCCCC", "F"]
]}

Turning to the following compound.
Query: Status in this test for CC(=O)CCc1ccccc1 ?
Response: F

----------
read-out: Monocyte Chemoattractant Protein-1 (MCP1), CCL2 (gene 6347); assay: BSK_SAg_MCP1: BioMAP Diversity Plus: SAg Assay for Monocyte Chemoattractant Protein-1 (MCP1) Biomarker Activity (AID 2283090); settings: primary human HUVEC with PBMC; actives raise or lower the signal
Calls of active or inactive are those of the source. How the source made its calls: active means hit-call score of the fitted dose curve at least 0.9, where 1 is the maximum; inactive means score below 0.9.
Give your call using only these classes: active, inactive

Example results:
{"columns": ["compound", "label-value"],
 "data": [
  ["CCCCCCCCCCCCCCCCCC[N+](C)(C)C", "active"],
  ["CN(C)CCC(c1ccc(Cl)cc1)c1ccccn1 (stereo not given)", "inactive"],
  ["CC[N+](CC)(CC(=O)Nc1c(C)cccc1C)Cc1ccccc1", "inactive"],
  ["CCCCCCC(O)CCCCCCCCCCC(=O)OC (stereo not given)", "inactive"],
  ["CN(C)c1ccc(C(c2ccccc2)c2ccc(N(C)C)cc2)cc1", "active"],
  ["COc1cc(CNC(=O)CCCC/C=C/C(C)C)ccc1O", "inactive"]
]}

Turning to the following compound.
Query: Status in this test for CCCCCCCCCCC1CO1 (stereo not given) ?
Response: inactive

----------
target: Cellular tumor antigen p53 (Homo sapiens) (UniProt P04637); assay: TOX21_p53_BLA_p3_ratio: Tox21 HCT-116 p53 Agonism Beta-lactamase Assay, Ratio, Phase 3 (AID 2283596)
Sequence (P04637 whole entry, looked up): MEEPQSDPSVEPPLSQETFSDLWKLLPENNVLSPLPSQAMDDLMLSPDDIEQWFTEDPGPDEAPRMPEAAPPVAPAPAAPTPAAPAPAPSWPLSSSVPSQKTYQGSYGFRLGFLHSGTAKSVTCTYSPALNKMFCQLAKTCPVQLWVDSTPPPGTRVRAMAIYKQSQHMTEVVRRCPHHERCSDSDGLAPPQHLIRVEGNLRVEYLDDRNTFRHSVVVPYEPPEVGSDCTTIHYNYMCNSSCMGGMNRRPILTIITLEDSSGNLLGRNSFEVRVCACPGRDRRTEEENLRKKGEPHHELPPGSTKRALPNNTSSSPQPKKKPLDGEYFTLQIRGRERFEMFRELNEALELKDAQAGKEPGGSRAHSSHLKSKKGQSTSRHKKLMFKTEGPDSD
Results filed as inconclusive are left out. The source made the active and inactive calls. The calls were made as follows: active = hit-call score of the fitted dose curve at least 0.9, where 1 is the maximum; inconclusive = response in the unintended direction; inactive = score below 0.9.
Give your call using only these classes: T for active, F for inactive

Example results:
{"columns": ["molecule", "assayed-target", "label-value"],
 "data": [
  ["COc1ncnc(NS(=O)(=O)c2ccc(N)cc2)c1OC", "Cellular tumor antigen p53 (Homo sapiens) (UniProt P04637)", "F"],
  ["Cc1cccc(C)c1Nc1ncccc1C(=O)O", "Cellular tumor antigen p53 (Homo sapiens) (UniProt P04637)", "F"],
  ["CCOC(=O)/C=C(C)/C=C/C=C(C)/C=C/c1c(C)cc(OC)c(C)c1C", "Cellular tumor antigen p53 (Homo sapiens) (UniProt P04637)", "F"],
  ["Cc1cc(O)c2c(c1)O[C@@]1(C)CC[C@H]3C(C)(C)CCCC34CO[C@@H]2[C@H]41 (some centres not stated)", "Cellular tumor antigen p53 (Homo sapiens) (UniProt P04637)", "T"]
]}

Query: Status in this test for CS(=O)(=O)Nc1cc2occ(NC=O)c(=O)c2cc1Oc1ccccc1 ?
Response: F

Query: Status in this test for O=C1CCCCO1 ?
Response: F

Query: Status in this test for Nc1ccc(S(=O)(=O)Nc2ccccn2)cc1 ?
Response: F

Query: Status in this test for Cc1ncc(CO)c(C=O)c1O ?
Response: F

Query: Status in this test for Cc1cc(CC(C)CC(C)(C)C)n(O)c(=O)c1 (configuration not stated) (tested in a mixture with another compound) ?
Response: F
